What Whole Brain brain/serum ratio, Without Unlabeled IRA was measured for each of the following?
Experiment: Saturability of brain uptake
Design: species or system CD-1 mice
Conditions: mouse, in vivo, iv
Answers are plain numbers, in µL/g.

Substance	Reading Unit	Data Value
YXEGTFTSDYSIYLDKQAAXEFVNWLLAGGPSSGAPPPSK-NH2 [Peptide 18]	µL/g	7.18
YXEGTFTSDYSIYLDKQAAXEFVNWLLAGGPSSGAPPPSKKKKKK-NH2 [DA-JC4]	µL/g	15.10
YXEGTFTSDYSIYLDKQAAXEFVNWLLAGGPSSGAPPPSC-NH2 [Peptide 17]	µL/g	11.41

Please give Whole Brain brain/serum ratio, Without Unlabeled IRA, item by item, for the list that follows.
1. HXEGTFTSDVSSYLEGQAAK^bEFIAWLVRGRG-OH [Semaglutide]
2. YXEGTFTSDYSIYLDKQAAXEFVC ^*WLLAGGPSSGAPPPSK-NH2 [Peptide 20]

result:
[9.637, 9.51]

query: GET /values?readout=Whole Brain brain/serum ratio, Without Unlabeled IRA&item= YXEGTFTSDYSIYLDKQAAXEFVNWLLAGGPSSGAPPPSK-NH2 [DA3-CH]
result: 20.86
